target: Transient receptor potential cation channel subfamily V member 1 (Rattus norvegicus, UniProt O35433); experiment: Antagonist activity at TRPV1 in Sprague-Dawley rat DRG neuron assessed as reduction of capsaicin-stimulated intracellular 45Ca2+ influx by scintillation counting
Sequence (O35433 whole entry): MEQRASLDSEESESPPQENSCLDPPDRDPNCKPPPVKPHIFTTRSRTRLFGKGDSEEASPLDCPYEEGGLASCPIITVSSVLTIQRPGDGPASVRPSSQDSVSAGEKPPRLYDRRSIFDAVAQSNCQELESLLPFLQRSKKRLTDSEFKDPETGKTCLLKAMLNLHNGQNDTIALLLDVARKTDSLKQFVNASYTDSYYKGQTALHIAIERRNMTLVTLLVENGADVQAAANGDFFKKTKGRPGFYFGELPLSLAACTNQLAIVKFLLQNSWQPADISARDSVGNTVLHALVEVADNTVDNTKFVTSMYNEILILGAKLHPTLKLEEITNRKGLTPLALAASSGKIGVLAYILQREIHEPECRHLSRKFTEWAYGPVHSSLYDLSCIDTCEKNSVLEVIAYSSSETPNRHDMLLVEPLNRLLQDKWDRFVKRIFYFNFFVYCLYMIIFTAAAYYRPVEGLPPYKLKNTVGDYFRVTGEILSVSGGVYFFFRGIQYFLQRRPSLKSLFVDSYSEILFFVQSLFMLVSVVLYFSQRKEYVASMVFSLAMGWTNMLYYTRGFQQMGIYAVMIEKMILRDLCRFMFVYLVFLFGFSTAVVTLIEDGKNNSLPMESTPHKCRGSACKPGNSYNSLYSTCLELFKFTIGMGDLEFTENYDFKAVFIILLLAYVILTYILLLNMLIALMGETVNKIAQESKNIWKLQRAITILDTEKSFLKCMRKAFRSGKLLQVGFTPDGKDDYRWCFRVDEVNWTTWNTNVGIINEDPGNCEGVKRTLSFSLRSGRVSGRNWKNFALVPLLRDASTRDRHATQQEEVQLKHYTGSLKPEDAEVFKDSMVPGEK
Measure: pIC50
In textbook form, pIC50 equals minus log to base ten of the concentration in mol/L.

Worked examples, 3 compounds total:
C[Si](C)(C)c1ccc(CNC(=S)NCc2ccc(NS(C)(=O)=O)c(F)c2)cc1 | 6.80
CC[Si](CC)(CC)c1ccc(CNC(=S)NCc2ccc(NS(C)(=O)=O)cc2)cc1 | 5.51
C[Si](C)(C)c1ccc(CNC(=S)NCc2ccc(NS(C)(=O)=O)cc2)cc1 | 6.82

# query: pIC50 of entry "CC(C)(C)c1ccc(CNC(=S)NCc2ccc(NS(C)(=O)=O)c(F)c2)cc1"
7.40
